Where these numbers come from: patent US10683265B1

Would you mind telling me the reported solubility of each entry?
experimental-protocol: Solubility determining in water by HPLC (saturated solutions, external standard method)
Assay type: physicochemical
stated-conditions: thermodynamic from solid; in water, room temperature; saturated solution stood overnight, supernatant measured by HPLC; read-out: Solubility
Answers are plain numbers, in mg/mL.

[[record]]
compound = "C=C(C)[C@@H]1CCC(C)=C[C@H]1c1c(O)cc(CCCCC)cc1O [Cannabidiol]"
unit_abbreviation = "mg/mL"
assay_result = 0.41


Data point: C=C(C)[C@@H]1CCC(C)=C[C@H]1c1c(O)cc(CCCCC)c(S(=O)(=O)[O-])c1O.[Na+] [Sodium cannabidiol-3-sulfonate, sodium cannabidiol-3-sulfonate] ; solubility = 486
